system: BVDV; assay: Triple combination checkerboard CPE assay (celgosivir or castanospermine + interferon-α2b + ribavirin), MacSynergy II; assay type: cell-based, bovine viral diarrhea virus; conditions: Ribavirin 0.12 μM; Interferon-α2b 2.2 IU/mL; read-out: Average Castanospermine EC50
Quantity Name: EC50
Put down the number, then write its unit next to it.

Simply: O[C@H]1[C@H](O)[C@@H](O)CN2CC[C@H](O)[C@H]12 , BVDV, EC50 = 23.4 µM

---

tested on: BVDV; test: Triple combination checkerboard CPE assay (celgosivir or castanospermine + interferon-α2b + ribavirin), MacSynergy II; assay type: cell-based, bovine viral diarrhea virus; details: Ribavirin 3.3 μM; Interferon-α2b 20 IU/mL; read-out: Average Castanospermine EC50
Quantity Name: EC50

// EC50 lookup, compound = O[C@H]1[C@H](O)[C@@H](O)CN2CC[C@H](O)[C@H]12 [Castanospermine] , result: < 1200 nM

---

Test system: BVDV
Assay: Triple combination checkerboard CPE assay (celgosivir or castanospermine + interferon-α2b + ribavirin), MacSynergy II
Type: cell-based, bovine viral diarrhea virus
Settings: Bovine viral diarrhea virus isolates and strains, Ribavirin 0.37 μM; Interferon-α2b 6.7 IU/mL; read-out: Average Celgosivir EC50
Method: Each double or triple combination was performed twice. The combination efficacy data were analyzed using the MacSynergy™ II software program as described herein. Each double or triple combination was performed twice. The combination efficacy data were analyzed using the MacSynergy™ II software program as described herein. The EC50 for each of celgosivir and castanospermine was calculated from the triple combination studies described in Example 6. Each double or triple combination was performed twice. […]
Quantity Name: EC50 (nM)
Hi! Could you send only the number? It should be in nM, unit omitted.

The reported value for CCCC(=O)O[C@H]1CN2CC[C@H](O)[C@@H]2[C@@H](O)[C@@H]1O [Celgosivir] in terms of EC50 is 1000

---

tested on: MDBK cells; test: Cytotoxicity of test compound in MDBK cells in the absence of viral infection (Example 1); conditions: absence of viral infection
Quantity Name: CC50

Test item O[C@H]1[C@H](O)[C@@H](O)CN2CC[C@H](O)[C@H]12 ; MDBK cells; reported CC50 was > 2000 µM

---

test system: BVDV; assay: Triple combination checkerboard CPE assay (celgosivir or castanospermine + interferon-α2b + ribavirin), MacSynergy II; type: cell-based, bovine viral diarrhea virus; settings: Bovine viral diarrhea virus isolates and strains, Ribavirin 0 μM; Interferon-α2b 20 IU/mL; read-out: Average Celgosivir EC50
Quantity Name: EC50

The measured EC50 associated with CCCC(=O)O[C@H]1CN2CC[C@H](O)[C@@H]2[C@@H](O)[C@@H]1O reads < 400 nM

---

test system: BVDV strain NADL; test: Inhibition of viral release from BVDV-infected MDBK cells (plaque titer); conditions: inhibits 50% of viral release; MOI = 1; 24 hours
Quantity Name: pEC50
Just the number, please; pEC50 means minus log10 of the concentration in mol/L.

// pEC50 lookup, compound = O[C@H]1[C@H](O)[C@@H](O)CN2CC[C@H](O)[C@H]12 [Castanospermine] , result: 4.71

---

test system: BVDV; experiment: Triple combination checkerboard CPE assay (celgosivir or castanospermine + interferon-α2b + ribavirin), MacSynergy II; format: cell-based, bovine viral diarrhea virus; conditions: Bovine viral diarrhea virus isolates and strains, Ribavirin 0 μM; Interferon-α2b 0.7 IU/mL; read-out: Average Celgosivir EC50
Quantity Name: EC50 (µM)
Just the number in µM, nothing appended.

Reported EC50 ( CCCC(=O)O[C@H]1CN2CC[C@H](O)[C@@H]2[C@@H](O)[C@@H]1O [Celgosivir] ) = 4.8

---

test system: BVDV; experiment: Triple combination checkerboard CPE assay (celgosivir or castanospermine + interferon-α2b + ribavirin), MacSynergy II; type: cell-based, bovine viral diarrhea virus; conditions: Ribavirin 0 μM; Interferon-α2b 0.7 IU/mL; read-out: Average Castanospermine EC50
Quantity Name: EC50 (µM)
Give a bare numeral; the unit µM is implied.

Record O[C@H]1[C@H](O)[C@@H](O)CN2CC[C@H](O)[C@H]12 [Castanospermine] . Reported EC50: 39

---

system: BVDV; test: Triple combination checkerboard CPE assay (celgosivir or castanospermine + interferon-α2b + ribavirin), MacSynergy II; type: cell-based, bovine viral diarrhea virus; conditions: Ribavirin 3.3 μM; Interferon-α2b 0.7 IU/mL; read-out: Average Castanospermine EC50
pEC50: −log10 of the molar value.
Quantity Name: pEC50

For reference, reported pEC50 for O[C@H]1[C@H](O)[C@@H](O)CN2CC[C@H](O)[C@H]12 [Castanospermine] stands at > 5.92

---

system: BVDV; assay: Triple combination checkerboard CPE assay (celgosivir or castanospermine + interferon-α2b + ribavirin), MacSynergy II; type: cell-based, bovine viral diarrhea virus; details: Ribavirin 1.1 μM; Interferon-α2b 0.7 IU/mL; read-out: Average Castanospermine EC50
Quantity Name: pEC50
pEC50 here is simply -log10 of the concentration when that concentration is written in mol/L.

Form field, pEC50 with BVDV, item O[C@H]1[C@H](O)[C@@H](O)CN2CC[C@H](O)[C@H]12 [Castanospermine] : 4.85

---

test system: BVDV; assay: Triple combination checkerboard CPE assay (celgosivir or castanospermine + interferon-α2b + ribavirin), MacSynergy II; type: cell-based, bovine viral diarrhea virus; settings: Ribavirin 1.1 μM; Interferon-α2b 2.2 IU/mL; read-out: Average Castanospermine EC50
Quantity Name: pEC50
# pEC50 is unitless: minus log10 of the molar concentration; print number only

Reported pEC50 for O[C@H]1[C@H](O)[C@@H](O)CN2CC[C@H](O)[C@H]12 [Castanospermine] was 5.16

---

tested on: BVDV; assay: Triple combination checkerboard CPE assay (celgosivir or castanospermine + interferon-α2b + ribavirin), MacSynergy II; format: cell-based, bovine viral diarrhea virus; conditions: Bovine viral diarrhea virus isolates and strains, Ribavirin 0.37 μM; Interferon-α2b 2.2 IU/mL; read-out: Average Celgosivir EC50
Quantity Name: EC50 (nM)
Numeric only. Scale: nM

Short answer on BVDV for CCCC(=O)O[C@H]1CN2CC[C@H](O)[C@@H]2[C@@H](O)[C@@H]1O , EC50: 2700

---

Measured CC50 of individual entries
test: in vitro; conditions: bovine

CC50 for C[C@@]1(O)[C@H](O)[C@@H](CO)O[C@H]1n1ccc(N)nc1=O [NM-107, 2′-C-methyl cytidine, reference compound] is 228 µM

CC50 measured on O=C(N[C@@H](Cc1c[nH]c2ccccc12)C(=O)O)c1ccc2ccn(Cc3ccccc3)c2c1 [2-BAIP, reference compound] = > 50 µM

Consider the record given below.
Looking up CCCC(=O)O[C@H]1CN2CC[C@H](O)[C@@H]2[C@@H](O)[C@@H]1O [Celgosivir] , I see its CC50 listed as > 300 µM

---

system: BVDV; experiment: Protection of MDBK cells from BVDV-induced cytopathicity (CPE reduction, MTS/PMS); format: cell-based, bovine viral diarrhea virus; conditions: 50% CPE reduction; MOI 0.05; read-out: EC50
Quantity Name: EC50 (µM)
Respond with the bare value in µM.

Entry under test: CCCCN1C[C@H](O)[C@@H](O)[C@H](O)[C@H]1CO [NB-DNJ, N-butyldeoxynojirimycin, reference compound] . Its EC50 was 459

---

tested on: BVDV; assay: Triple combination checkerboard CPE assay (celgosivir or castanospermine + interferon-α2b + ribavirin), MacSynergy II; assay type: cell-based, bovine viral diarrhea virus; conditions: Ribavirin 1.1 μM; Interferon-α2b 6.7 IU/mL; read-out: Average Castanospermine EC50
pEC50: −log10 of the molar value.
Quantity Name: pEC50

Field pEC50 (system: BVDV) for entry O[C@H]1[C@H](O)[C@@H](O)CN2CC[C@H](O)[C@H]12 = > 5.92
